# targetOrTestSystem: Potassium channel subfamily K member 9 (Homo sapiens)
# assay: blockers of human TASK-3 (KCNK9) channel – HEK293 cells, thallium flux, primary screen (AID 488922);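 as to B-score: negative B-score means less thallium flux so channel inhibition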
# measurementConditions: HEK293 KCNK9, FluxOR thallium flux fluorescence, at 10 µM; active compounds read low
Screen size: about 310,000 compounds; about 3,800 (1.2%) were called active. The full list was thinned out, with actives kept by preference.
property: B-score

Worked examples, 8 compounds total:
{"compound": "CC(=O)Nc1ccc(SCC(=O)Nc2ccccc2Oc2ccccc2)cc1", "targetOrTestSystem": "Potassium channel subfamily K member 9 (Homo sapiens)", "B-score": "inactive"}
{"compound": "CCc1nnc(NC(=O)CSc2nc(SC)ns2)s1", "targetOrTestSystem": "Potassium channel subfamily K member 9 (Homo sapiens)", "B-score": "inactive"}
{"compound": "O=C(CN1C(=O)/C(=C\\c2ccccc2F)SC1=S)Nc1nc2ccccc2s1", "targetOrTestSystem": "Potassium channel subfamily K member 9 (Homo sapiens)", "B-score": "-7.2 (active)"}
{"compound": "COc1ccccc1N1CCN(c2ncnc3sc(C)c(-c4ccccc4)c23)CC1", "targetOrTestSystem": "Potassium channel subfamily K member 9 (Homo sapiens)", "B-score": "-16.5 (active)"}
{"compound": "Oc1ccccc1N1CCN(c2ncnc3sc(-c4ccccc4)cc23)CC1", "targetOrTestSystem": "Potassium channel subfamily K member 9 (Homo sapiens)", "B-score": "inactive"}
{"compound": "CNC1(c2nnnn2-c2c(C)cccc2C)CCOC(C)(C)C1 (configuration not stated)", "targetOrTestSystem": "Potassium channel subfamily K member 9 (Homo sapiens)", "B-score": "inactive"}
{"compound": "O=C(NC(=S)Nc1ccc2oc(=O)ccc2c1)c1ccc(-c2cccc(Cl)c2Cl)o1", "targetOrTestSystem": "Potassium channel subfamily K member 9 (Homo sapiens)", "B-score": "inactive"}
{"compound": "CC(/C=N/NC(=O)c1cc(-c2ccc3ccccc3c2)n[nH]1)=C\\c1ccco1", "targetOrTestSystem": "Potassium channel subfamily K member 9 (Homo sapiens)", "B-score": "-6.63 (active)"}

Look up B-score for the entries below, preserving their order.
1. Cc1ccc(C(C[N+](=O)[O-])c2c(C)cc3ccccn23)cc1 (configuration not stated)
2. COc1ccc(-c2csc3ncnc(N4CCN(S(=O)(=O)c5cccc(F)c5)CC4)c23)cc1
3. CNC(=S)N/N=C/c1cn(Cc2ccc(C)cc2)c2ccccc12
4. Cc1cc(C)n(CCNS(=O)(=O)c2ccc(Cl)cc2)n1
5. O=C(CCNC(=O)c1ccc(Br)cc1)Nc1cccc(S(=O)(=O)N2CCCCC2)c1
6. COc1cc(C)nc(N2CCCC(C(=O)NCC(C)C)C2)n1 (configuration not stated)

1. inactive
2. inactive
3. inactive
4. inactive
5. inactive
6. inactive

###

# targetOrTestSystem: Potassium channel subfamily K member 9 (Homo sapiens) (UniProt Q9NPC2)
# Sequence (Q9NPC2 whole entry, looked up): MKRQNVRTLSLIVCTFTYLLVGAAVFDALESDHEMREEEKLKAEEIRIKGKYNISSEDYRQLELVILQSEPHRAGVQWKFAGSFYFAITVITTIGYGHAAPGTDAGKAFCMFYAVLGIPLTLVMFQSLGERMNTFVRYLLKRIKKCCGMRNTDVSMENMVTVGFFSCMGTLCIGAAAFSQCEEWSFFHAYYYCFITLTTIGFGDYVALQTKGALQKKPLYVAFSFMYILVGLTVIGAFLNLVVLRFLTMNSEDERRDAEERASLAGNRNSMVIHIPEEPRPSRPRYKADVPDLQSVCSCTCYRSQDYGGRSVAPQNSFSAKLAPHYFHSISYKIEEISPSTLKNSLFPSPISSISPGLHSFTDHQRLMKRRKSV
# assay: blockers of human TASK-3 (KCNK9) channel – HEK293 cells, thallium flux, primary screen (AID 488922)
# measurementConditions: HEK293 KCNK9, FluxOR thallium flux fluorescence, at 10 µM
Screen size: about 310,000 compounds; about 3,800 (1.2%) were called active.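 How the source made its calls: active means ratio B-score over 3 SD below the library mean, with starting fluorescence within 5 SD of its mean; inactive means the rest, inconclusive results apart.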 The sample holds actives, similar compounds and a random draw of the others, so the mix is not that of the screen.
Your answer must be one of the following: 1.0 = active, 0.0 = inactive

As a guide, the following entries are already answered.
{"compound": "COc1ccccc1C1C(C#N)=C(N)Oc2c1c(-c1ccccc1)nn2-c1ccccc1 (stereo not given)", "groupLabel": 0.0}
{"compound": "CN(C)C(=O)c1ccc2c(c1)C1C3CCC(C3)C1C(c1ccccc1)N2 (stereo not given)", "groupLabel": 0.0}
{"compound": "COc1cc(NC(=O)c2ccccc2)c(OC)cc1NC(=O)Cc1ccccc1", "groupLabel": 0.0}
{"compound": "COC(=O)c1c(NC(=O)C(=O)N2CCCCC2)sc2c1CC(C)(C)OC2", "groupLabel": 0.0}
{"compound": "CCCn1nc(Oc2nc(NC(C)C)nc(N(C)C)n2)ccc1=O", "groupLabel": 0.0}

// outcome(item) with item = C=CCn1c(SCc2ccc(C(=O)NCCO)cc2)nc2ccccc2c1=O 0.0

What did the test return for O=C(Nn1c(SCc2ccc([N+](=O)[O-])cc2)nc2ccccc2c1=O)c1ccc(F)cc1 ? 1.0

Given Cc1nc2ccccc2c(=O)n1NC(=O)c1ccc(Cl)c([N+](=O)[O-])c1 , state the outcome it received in this test. 0.0

Tell me the assay call for Cc1ccc(N2C(=O)C(NC(=O)c3c(F)cccc3F)(C(F)(F)F)C3=C2CC(C)(C)CC3=O)cc1 (stereo not given) please. 0.0

Record request — test call for CC(C)c1nnc(NC(=O)C2CC(=O)N(CCc3ccc(F)cc3)C2)s1 (stereo not given) 0.0

###

# targetOrTestSystem: Potassium channel subfamily K member 9 (Homo sapiens) (UniProt Q9NPC2)
# assay: blockers of human TASK-3 (KCNK9) channel – HEK293 cells, thallium flux, primary screen (AID 488922)
# measurementConditions: HEK293 KCNK9, FluxOR thallium flux fluorescence, at 10 µM
In all, about 310,000 compounds went through this assay and about 3,800 (1.2%) were called active.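 The calls were made as follows: active = ratio B-score over 3 SD below the library mean, with starting fluorescence within 5 SD of its mean; inactive = the rest, inconclusive results apart.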 The sample as a whole holds a higher share of actives than the screen did.
Respond using exactly one of the listed classes: active, inactive

Recorded results for 3 molecules are shown here.
{"molecule": "COc1ccc(C2CC(c3cccs3)=NN2C(=O)CSc2nnc(N)s2)cc1OC (stereo unspecified)", "groupLabel": "inactive"}
{"molecule": "COc1ccc(C2=NN(c3ccccc3)C(c3cccs3)C2)cc1 (stereo unspecified)", "groupLabel": "inactive"}
{"molecule": "COc1ccc(C2CC(c3cccs3)=NN2c2ccccc2)cc1 (stereo unspecified)", "groupLabel": "active"}

Now take the following molecule into account.
// outcome(item) with item = CCC(C)n1c(-c2cc(OC)c(OC)c(OC)c2)nc2nc3ccccc3nc21 (stereo unspecified) active

###

# targetOrTestSystem: Potassium channel subfamily K member 9 (Homo sapiens)
# assay: blockers of human TASK-3 (KCNK9) channel – HEK293 cells, thallium flux, primary screen (AID 488922);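 as to B-score: negative B-score means less thallium flux so channel inhibition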
# measurementConditions: HEK293 KCNK9, FluxOR thallium flux fluorescence, at 10 µM; active compounds read low
The campaign covered roughly 310,000 compounds. About 3,800 (1.2%) were called active. What follows is part of a selection rich in actives, with near analogues and random picks from the rest.
property: B-score

Use these answered entries as a reference point.
{"molecule": "COc1ccc(N(CCC#N)S(=O)(=O)c2ccc(Cl)cc2)cc1", "B-score": "inactive"}
{"molecule": "c1n[nH]c(NCc2ccc3c(c2)OCO3)n1", "B-score": "inactive"}
{"molecule": "CN1CCN(C2Cc3ccc(Cl)cc3Sc3ccc(F)cc32)CC1 (stereo not drawn)", "B-score": "inactive"}
{"molecule": "O=c1c2c3c(sc2n(CCN2CCCC2)c(=O)n1Cc1ccccc1)CCCCC3", "B-score": "inactive"}
{"molecule": "O=C(Cn1cc(C(=O)c2cccs2)c2ccccc21)NCc1cccs1", "B-score": "-13.5 (active)"}

# map each molecule to its B-score
1. COc1ccc(-c2nc(CCNC(=O)c3ccc(Br)o3)cs2)cc1
2. COc1ccc(-c2nc3n(c(=O)c2C#N)CCS3)c(OC)c1
3. O=C(CCc1n[nH]c(=O)[nH]c1=O)N/N=C/c1ccc(Br)o1
4. Cc1c(C(=O)N2CC(C)OC(C)C2)sc2nc(-c3ccccc3)cn12 (stereo not drawn)
5. COc1ccc(N2CCN(C(=O)CNC(=O)c3ccc(Br)o3)CC2)cc1

1. -10.5 (active)
2. inactive
3. inactive
4. inactive
5. inactive

###

# targetOrTestSystem: Potassium channel subfamily K member 9 (Homo sapiens) (UniProt Q9NPC2)
# assay: blockers of human TASK-3 (KCNK9) channel – HEK293 cells, thallium flux, primary screen (AID 488922)
# measurementConditions: HEK293 KCNK9, FluxOR thallium flux fluorescence, at 10 µM
In all, about 310,000 compounds went through this assay and about 3,800 (1.2%) were called active.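 How the source made its calls: active means ratio B-score over 3 SD below the library mean, with starting fluorescence within 5 SD of its mean; inactive means the rest, inconclusive results apart.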 The sample holds actives, similar compounds and a random draw of the others, so the mix is not that of the screen.
Tick one outcome: Y for active, N for inactive

{"compound": "COc1cc(Cl)c(C)cc1NC(=O)CSc1nnc(-c2ccco2)n1CC(C)C", "groupLabel": "Y"}
{"compound": "Cc1ccc(OCc2nc3ccccc3n2C)cc1", "groupLabel": "N"}
{"compound": "COc1ccc(/C=C2\\CCCC3C2=NN(C(=O)c2scnc2C)C3c2ccc(OC)cc2)cc1 (stereo not given)", "groupLabel": "N"}

Recorded test call requested for O=[N+]([O-])/C=C/c1ccc2c(ccn2Cc2ccccc2)c1 Y

I'd appreciate the recorded outcome for O=C(/C=C/c1ccccc1)Oc1coc(CSc2ncccn2)cc1=O from this test. N

###

# targetOrTestSystem: Potassium channel subfamily K member 9 (Homo sapiens)
# assay: blockers of human TASK-3 (KCNK9) channel – HEK293 cells, thallium flux, primary screen (AID 488922)
# measurementConditions: HEK293 KCNK9, FluxOR thallium flux fluorescence, at 10 µM
Screen size: about 310,000 compounds; about 3,800 (1.2%) were called active.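 Rule for the calls: active = ratio B-score over 3 SD below the library mean, with starting fluorescence within 5 SD of its mean; inactive = the rest, inconclusive results apart.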 The entries come from a sample that favours actives as a whole.
Entry note: the call must match one of yes = active, no = inactive

Below are worked cases with known answers.
{"molecule": "N#C/C=C/N1CCN(Cc2ccc3c(c2)OCO3)CC1", "targetOrTestSystem": "Potassium channel subfamily K member 9 (Homo sapiens)", "groupLabel": "no"}
{"molecule": "COc1cc2c(C(=O)N(C)c3cc(Cl)ccc3OC)cn(C)c(=O)c2cc1OC", "targetOrTestSystem": "Potassium channel subfamily K member 9 (Homo sapiens)", "groupLabel": "no"}

For COc1ccccc1CC(=O)NCCc1c[nH]c2ccccc12 , what call appears in the results of this test? no

What did the test return for Clc1cccc(-c2nc3nc4ccccc4nc3n2Cc2ccco2)c1 ? yes

Just curious, what result did CC(C)(C)c1nnc(NC(=O)C2c3ccccc3Oc3ccccc32)s1 get here? no

Please share the test call associated with O=C(OCC(=O)N(CCc1ccccc1)Cc1ccccc1)c1ccccc1[N+](=O)[O-] . yes

What did the test return for CSc1ccc(/C=C/C(=O)NC23CC4CC(CC(C4)C2)C3)cc1 ? no
